System: MS2 coat protein
Experiment notes: apparent KD of MS2 coat protein; higher = weaker reporter binding
Condition parameters: Eterna round: R107; input ligand: theophylline 20 uM
Recorded apparent KD of MS2 coat protein, one value per entry.
Give the number; nM is assumed, so skip it.

Previously resolved entries follow.
Residue sequence	apparent KD of MS2 coat protein (nM)
UGUCGAAACUGAAGGAGCGAGAUGACAAACAUGAGGAUCACCCAUGUUAUGGGUUGUUAAUCUCAGGUAGGUCGCAGUGACAAAA [Same State Arginine B GF 16]	86.8
GCACCAGGUACGGAUACCAGCUAUAGGUACAUGUCAGGACAUGAGGAUCACCCAUGUGGUAGCCCUUGGCAGCUGUACCUGGUGC [EThB NP+V+V2 #2]	26.3

We next turn to a different sequence, shown below.
## Task Give its apparent KD of MS2 coat protein value. Item: "UGGUACAUGGCGGCCGCCACUGGGUUGAAAACCUGAGGAUCACCCUGGUAAAACGCGAAAGCGACUAGGACCGGGUCAUGUACCU"
## Result 891

* * *

Test system: MS2 coat protein
Experiment notes: apparent KD of MS2 coat protein; designed switch direction (-1 OFF switch, 1 ON switch): -1; higher = weaker reporter binding
Condition parameters: Eterna round: R95; input ligand: none
Entries and their measured apparent KD of MS2 coat protein follow.
Record the value in µM, omitting the unit from your answer.

The cases that follow already have their apparent KD of MS2 coat protein on record.
Residue sequence	Test value
GUUAAGUGAGGAUAUGGUAAAUUAAUUAUUAAUUAAUUAAUCCAGAAGGCACAUGAGGAUCACCCAUGUAAAUG [Mat - Exclusion 4 - D87] (puzzle: Exclusion 4)	0.0315
GGUACUAACACGAAAGUGUUAGUACAAUAAGCUUGUGAAACAUGAGGAUCACCCAUGUCCUCAUAAGCUCGUCUUAG [salish99_TOv2_r3_005] (puzzle: Sensor v3, turn-off variant 2)	0.0123
AGUUGUUGUUUCCGUUCUUACAUGAGGAUCACCCAUGUUUCUUGUCGUGCUCGCGUUGCUCGUCAGACUACCUGUUG [salish99_TOv1_r3_064] (puzzle: Sensor v3, turn-off variant 1)	0.138
AAUACUAACACGAAAGUGUUAGUACAAUAAGCUUGUGGUACAUGAGGAUCACCCAUGUCCUCAUAAGCUCGUCUUAU [Mat - Sensor v3 - Turn-off var 2 - D41] (puzzle: Sensor v3, turn-off variant 2)	0.0219

// below: apparent KD of MS2 coat protein requested for another sequence
## Task // apparent KD of MS2 coat protein lookup, key: GAAAAGGUAGGAUAUACGAAAAAAAAGGGUAGAAAAAAAACACAUGAGGAUCACCCAUGUAGAAGGACCAAAAC [salish99_ex2_r3_052] (puzzle: Exclusion 2)
## Result 0.0278

* * *

Test system: MS2 coat protein
Experiment notes: apparent KD of MS2 coat protein; higher = weaker reporter binding
Condition parameters: Eterna round: R107; input ligand: theophylline 2 mM
Parameter measured: apparent KD of MS2 coat protein (nM)
Field format: number, assumed nM, no unit text.

Residue sequence	Test value
UAAAACAUGAGGAUCACCCAUGUAUUGAGUCGAGGACCGGUACGGCCGCCACUCGGCAAUAAUAACGACGCAUAGCAUGUAGGAA [theeternabot_sameState_MS2_Trp_A_41]	14.9

## Task Under MS2 coat protein: apparent KD of MS2 coat protein value of GCAUCCUAGUCGGCCGCCACUGCAUCACCAGUGGCAGGUGAUCAACAUGAGGAUCACCCAUGUAGCAGGACCGGGACUAGGAUGC [(Trp1)-(TM)''-(TM)'-(Ms2)-(Trp2)_Design4] ?
## Result 168

## Task Param readout= apparent KD of MS2 coat protein; system= MS2 coat protein; entry= CUAUUCUGUACGGCCGCCACUUCAACGUGUAAGCUGGUGGUCCACUACAUGAGGAUCACCCAUGUAAGGACCGGGUACGGCGCGG [theeternabot_exclusion_MS2_Trp_B_29] ; returns value.
## Result 69.4

## Task Missing value: apparent KD of MS2 coat protein, MS2 coat protein, entry CCUAUGCAGUCGGCCGCCACUGAACAUGAGGAUCACCCAUGUAAUUAUAAAUAUGGUCCUAAAAUCAGGACCGGGACUGUAUAGG [Ex Tryptophan B 7] . Fill in?
## Result 296

## Task Please provide the recorded apparent KD of MS2 coat protein for CCGACAUGAGGAUCACCCAUGUGAACAGAUACCAGUCUGGUAAUAGACCCUUGGCAGCUGAACCAGGAAACUAUGGUGAUCCUGG [Theo A SS t3] , tested on MS2 coat protein.
## Result 187

* * *

Test system: MS2 coat protein
Experiment notes: apparent KD of MS2 coat protein; designed switch direction (-1 OFF switch, 1 ON switch): -1; higher = weaker reporter binding
Condition parameters: input ligand: none
# cutoff 60 nM applies to apparent KD of MS2 coat protein; >= gives Criterion met, < gives Criterion not met

Please review the following examples before continuing.
Residue sequence	Assigned label
CGUCCACUUGAGGAUCACCCAAGUUAGGAUAUCUCCCGGCUCGCAAAUGCAGUCGGUCAGAGAAGGAACCAGGG [Qualaon] (Eterna round: R97, puzzle: Exclusion 1)	Criterion not met
UUUGCAAGCUAAAGAUCCCACAUGAGGAUCACCCAUGUUGCUGCCGUGAGGUAGCAUUUAACUUUUGCUCGUCUUAU [JL TOV1 3.49] (Eterna round: R97, puzzle: Sensor, turn-off variant 1)	Criterion met
UCAUGUCCAGAGGAUAUGUAGCGGAUAAACGCAACAGAAGGCUGGACAUGAGGAUCACCCAUGUGUGCCUUCUA [Exclusion 6 Mod3 of JL of Mod of Letion by ViennaUCT] (Eterna round: R97, puzzle: Exclusion 6)	Criterion met
AGAUUAAAAGUAAGGAUAUGCUUCCGGAAACGGAGGCAGAAGGUACAUGAGGAUCACCCAUGUUAAACUAAUUU [Explosion 5 - Jieux - Brourd's mod of Exclusion 4] (Eterna round: R97, puzzle: Brourd's mod of Exclusion 4)	Criterion not met
CGGUGCUCGUGGAAACAUGAGGAUCACCCAUGUUGAGUUAGCGAGGAUAUCGGUAACACAUAUCACGAGAAGGCGCGAACCAGA [Ex NG3 #31] (Eterna round: R96, puzzle: Exclusion NG 3)	Criterion not met

## Task Record AAGAAUUUGCAGGAUAUCUACCACGAUAGGGAUAGAGAAGGGUAAACAUGAGGAUCACCCAUGUAGUAGGUCCG [Eternabot (L2) Solution 91] (Eterna round: R97, puzzle: Exclusion 6) ; criterion: apparent KD of MS2 coat protein no lower than 60 nM. Met?
## Result Criterion met

## Task Is apparent KD of MS2 coat protein for GACUUCUGAGGAUAUACAUAGAUUUACAUGAGGAUCACCCAUGUUCCUCUAUGUAUAAAUGUAGAAGGCAGAAGAU [Mat - Exclusion 5 - JL Mod - D66] (Eterna round: R97, puzzle: Exclusion 5) at or above 60 nM?
## Result Criterion not met

## Task # check: apparent KD of MS2 coat protein of GCAGCAUAGUCCAAAUAGGACAUACAUGAGGAUCACCCAUGUCAGGAUAUGGUCUGGAUUACAGGCCAGAAGGGACGAAGCUGC [Eli exng3 - 005] (Eterna round: R96, puzzle: Exclusion NG 3) is greater than or equal to 60 nM
## Result Criterion not met

* * *

System: MS2 coat protein
Experiment notes: apparent KD of MS2 coat protein; designed switch direction (-1 OFF switch, 1 ON switch): -1; higher = weaker reporter binding
Condition parameters: Eterna round: R95; input ligand: microRNA oligo, concentration not stated
Parameter measured: apparent KD of MS2 coat protein (nM)
Hi! Could you send only the number? It should be in nM, unit omitted.

## Task Item CUGAGCAGACGGAAAUCCAACAUGAGGAUCACCCAUGUCUCAAAAGCUUUUUGCUUGUCUUAUUCUCCUCUGUUCUC [Edtile] (puzzle: Sensor v3, turn-off variant 1) has what recorded apparent KD of MS2 coat protein?
## Result 71.2

## Task Report apparent KD of MS2 coat protein for AUAUAAAUAUAGGAUAUCGAAUUUAUUAAUUAUCGAGAAGGAUAAACAUGAGGAUCACCCAUGUGGUAUCAUGG [Mat - Exclusion 6 - JL Mod - D40] (puzzle: Exclusion 6) please.
## Result 270

## Task I am curious: what apparent KD of MS2 coat protein value has been reported for CUUUCGUGAGGAUAUCAGUAGUAAAAAUAUAAAAUUACUACUGAGAAGGCACAUGAGGAUCACCCAUGUUCCUC [salish99_ex3_r3_100] (puzzle: Exclusion 4) ?
## Result 24.1

* * *

Test system: MS2 coat protein
Experiment notes: apparent KD of MS2 coat protein; designed switch direction (-1 OFF switch, 1 ON switch): -1; higher = weaker reporter binding
Condition parameters: input ligand: none
Below, each of the sequences is paired with its reported apparent KD of MS2 coat protein value.
Report the figure in µM without appending any unit label.

Residue sequence	Parameter measured	Test value
UCUGUUCAAGGAUAUGCGUAAGGUGUUACGGCACCAGGUCUACAUGAGGAUCACCCAUGUAGAAGGUGAUCAGA [EX2 #88] (Eterna round: R97, puzzle: Exclusion 2)	apparent KD of MS2 coat protein	0.0203
ACUUACUGAGGAUAUACUUAGAUUUACAUGAGGAUCACCCAUGUUCCUCUAUGUAUAUAUGUAGAAGGCAGAAGAA [JL-ex5-4.35 Malcolm mod] (Eterna round: R97, puzzle: Exclusion 5)	apparent KD of MS2 coat protein	0.0237
GUGCAACAUGAGGAUCACCCAUGUCAGGAUAUGCGAAUUUCAUCAAAAGAUGAAAUUUGCAGAAGGGACUGUAC [Omei Ex1 A20] (Eterna round: R97, puzzle: Exclusion 1)	apparent KD of MS2 coat protein	0.0489
CGGUGACAUGAGGAUCACCCAUGUUAGGAUAUGACUUCGUACGCGAACAGGUAUGGAGUCAGAAGGAGCAUCCA [Eternabot (Original) Solution 45] (Eterna round: R97, puzzle: Exclusion 1)	apparent KD of MS2 coat protein	0.0384

## Task I'm curious: which apparent KD of MS2 coat protein was measured for UGAUCAGACCGAGGAUAUACAGGGAGCACGCACGUGAGUGCGUGCACUACAUGAGGAUCACCCAUGUAGAAGGCGGUCUGAUCU [JL ENG2 1.00] (Eterna round: R96, puzzle: Exclusion NG 2) tested on MS2 coat protein?
## Result 0.0193

## Task Recorded apparent KD of MS2 coat protein for AAAGGAUGCCUAGGAUAUUGACUAAGAAAGGAUUAAGAAGGAGGAAAUAUAUGAGGGAUCCACAUGAGGAUCACCCAUGUACAC [Xesousbege] (Eterna round: R96, puzzle: Exclusion NG 1) with MS2 coat protein, please?
## Result 0.607
